These measurements were taken from patent US20250282868A1.

- experimental system: T1, human TREM2 (human, UniProt Q9NZC2 19-230)
- T1 construct: on THP-1 WT cells and M2a-like macrophages (endogenous) and on CHO or HEK293T cells overexpressing human TREM2 with DAP12; also called hTREM2
- T1 sequence: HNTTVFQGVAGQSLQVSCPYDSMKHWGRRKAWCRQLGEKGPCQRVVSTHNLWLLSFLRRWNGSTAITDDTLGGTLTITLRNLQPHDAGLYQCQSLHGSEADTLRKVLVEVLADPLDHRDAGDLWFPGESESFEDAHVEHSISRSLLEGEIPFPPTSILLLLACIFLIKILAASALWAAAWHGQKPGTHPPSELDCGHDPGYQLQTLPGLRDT
- experiment notes: flow cytometry, competition with LDL-Alexafluor-488 on CHO cells overexpressing human TREM2/DAP12
reported endpoint: IC50 (nM)
Write the answer as a number in nM, unit excluded.

query: Which IC50 is listed for EOS006163 (antibody, V domains shown) VH: QVQLVQSGAEVKKPGSSVKVSCKASGGTFAQYAISWVRQAPGQGLEWMGVIIPDSGTANYAQKFQGRVTITADESTSTAYMELSSLRSEDTAVYYCARTQENTIFDIWGQGTMVTVSS VL: EIVLTQSPATLSLSPGERATLSCRASQSVSSYLAWFQQKPGQAPRLLIYDASNRATGIPARFSGSGSGTDFTLTISSLEPEDFAVYYCQQDYEWPITFGGGTKVEIK ?
result: 0.169

query: Next record, please: EOS006174 (antibody, V domains shown) VH: EVQLVESGGGLVQPGRSLRLSCTASGFTFGEYTMSWFRQAPGKGLEWVGFIGSKAYAGTTEYTASVKGRFTISRDGSKSIAYLQMNSLKTEDTAVYYCARGKRYSYGGWVPAFDVWGQGTMVTVSS VL: DIQMTQSPSSLSASVGDRVTITCQASQDITNYLNWYQQKPGKAPKLLIYDASNLETGVPSRFSGSGSGTDFTFTISSLQPEDIATYYCQEYDSYLAFGGGTKVEIK
result: 0.3
